molecular target: Follistatin (Homo sapiens) (UniProt P19883); experiment: FST protein binding to printed compounds – biochemical, small-molecule microarray, 635/667 nm fluorescence, primary screen (AID 1132); details: 635 nm fluorescence, higher = more signal
Sequence (P19883 whole entry, looked up): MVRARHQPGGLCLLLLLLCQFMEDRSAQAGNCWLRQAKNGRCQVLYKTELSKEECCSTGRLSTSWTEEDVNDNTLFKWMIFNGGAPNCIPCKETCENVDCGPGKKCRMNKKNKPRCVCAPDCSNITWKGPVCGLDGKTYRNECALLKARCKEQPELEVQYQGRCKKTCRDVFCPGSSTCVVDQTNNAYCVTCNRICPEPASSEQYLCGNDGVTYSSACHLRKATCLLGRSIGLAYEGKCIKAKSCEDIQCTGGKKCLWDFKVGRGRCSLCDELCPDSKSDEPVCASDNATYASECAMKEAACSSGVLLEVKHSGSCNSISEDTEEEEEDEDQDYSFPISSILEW
Label Y for high-side composite z-score (at or above 1) and N for low-side composite z-score (below it).

Worked cases, answers included:
{"molecule": "CC1C=C(CCCO)C=C(C(=O)OCCS(C)(=O)=O)C(C(=O)OCCS(C)(=O)=O)=CN1Cc1cccc(OC(F)(F)F)c1 (configuration not stated)", "discreteLabel": "N"}
{"molecule": "CC(C)(C)N1CC=CC23O[C@@H]4C=CCCOC(=O)C4[C@H]2C(=O)N(CCCO)[C@@H]3C1=O (some centres not stated)", "discreteLabel": "N"}
{"molecule": "COc1cc2c(cc1OC)CN(C(=O)[C@@H]1[C@H]3C(=O)O[C@H](c4ccccc4)[C@H](c4ccccc4)N3[C@H](c3ccc(O)cc3)[C@@]13C(=O)Nc1ccc(C#CCNC(N)=O)cc13)CC2", "discreteLabel": "Y"}
{"molecule": "CCCC=C(CCC)[C@@H](NS(=O)(=O)c1cccc2cccnc12)c1ccc(C(=O)OC)cc1", "discreteLabel": "Y"}

(Q) Determine whether this molecule has composite z-score no lower than 1: [N-]=[N+]=Nc1ccccc1[C@@H]1OC(c2ccc(OCCCO)cc2)=N[C@]1(CCS(=O)(=O)c1ccccc1)C(=O)NCc1ccccc1
(A) Y

(Q) Please check the record CC(C)NC(=O)[C@@]1(Cc2ccccc2I)c2ccccc2C(=O)N(Cc2ccccc2C(F)(F)F)[C@H]1c1ccc(CO)cc1 and state if its composite z-score is at or above 1.
(A) N

(Q) Decide: is the reported value of composite z-score for COC(=O)c1ccc(OC)c(/C=C\CC(CCc2ccccc2)OC(C)=O)c1 (configuration not stated) equal to or greater than 1?
(A) N

* * *

Parameter: z-score. Scope: all listed entries.
test: forskolin-driven CRE-LacZ activity in PC12 – cell-based, CRE-LacZ reporter, forskolin-stimulated, primary screen (AID 1146); settings: luminescence, 4.5 h, higher = more signal, called active from +8 up or from −8 down;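 also: PC12 cells with 6xCRE LacZ reporter stimulated by forskolin 10 µM; beta-galactosidase reporter signal reflecting CREB driven transcription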
Provide a numeric answer; units are not to be included.

{"compound": "NC(=O)[C@@H]1[C@H]2C(=O)O[C@H](c3ccccc3)[C@H](c3ccccc3)N2[C@H](c2ccccc2OCCO)[C@@]12C(=O)Nc1ccc(C#CCCO)cc12", "z-score": -0.445}
{"compound": "CCCNC(=O)[C@@H]1c2ccccc2C(=O)N(CC23CC4CC(CC(C4)C2)C3)[C@H]1c1ccc(CO)cc1", "z-score": -0.517}
{"compound": "C=C(COC)C(=O)CC[C@H](OC(=O)c1ccccc1-c1ccccc1C(=O)O)c1ccc(OCCO)cc1", "z-score": -0.42}
{"compound": "Cc1cc(C)c(C(O)C2C=CC3C(=O)N(c4ccccc4)C(=O)C3N2Nc2ccccc2)c(C)c1 (configuration not stated)", "z-score": 0.501}
{"compound": "COc1ccc(C(=O)Nc2ccc3c(c2)[C@]2(O[C@@H](CCO)[C@H]([Si](C)(C)c4ccc(OC)cc4)[C@H]2C)C(=O)N3Cc2ccccc2)cc1", "z-score": -0.606}
{"compound": "N#Cc1ccc(NN2C(C(O)c3ccco3)C=CC3C(=O)N(c4ccccc4)C(=O)C32)cc1 (configuration not stated)", "z-score": 0.2}

(Q) For the compound shown here, [N-]=[N+]=NCc1ccccc1[C@H]1OC(c2ccc(OCCCO)cc2)=N[C@@]1(Cc1ccccc1)C(N)=O , give the reported z-score.
(A) -1.43

* * *

tested on: Human papillomavirus type 1a E7 protein (residues 1-88); assay: HPV1a E7 small-molecule binders, primary screen, biochemical, small-molecule microarray, residues 1-88, 635 nm (AID 1129); details: small-molecule microarray binding, fluorescence 635 nm; higher = more signal
fulfilled means recorded composite z-score is 0.1 or above; not fulfilled means it is below 0.1.

Below, 4 compounds whose answers are already recorded.
{"compound": "NC(=O)[C@@H]1[C@H]2C(=O)O[C@H](c3ccccc3)[C@H](c3ccccc3)N2[C@H](c2ccccc2OCCO)[C@@]12C(=O)Nc1ccc(C#CCCO)cc12", "assaySystem": "Human papillomavirus type 1a E7 protein (residues 1-88)", "discreteLabel": "not fulfilled"}
{"compound": "COCCCNC(=O)[C@@]1(Cc2ccccc2)COC(c2ccc(OCCCO)cc2)=N1", "assaySystem": "Human papillomavirus type 1a E7 protein (residues 1-88)", "discreteLabel": "fulfilled"}
{"compound": "COCCCNC(=O)[C@@H]1c2ccccc2C(=O)N(c2ccc(C)cn2)[C@H]1c1ccc(CO)cc1", "assaySystem": "Human papillomavirus type 1a E7 protein (residues 1-88)", "discreteLabel": "not fulfilled"}
{"compound": "COCCOC(=O)N1C(=O)[C@@]2(c3ccccc31)[C@H](c1ccccc1OCCO)N1[C@H](c3ccccc3)[C@H](c3ccccc3)OC(=O)[C@H]1[C@@H]2C(=O)N1CCc2cc(OC)c(OC)cc2C1", "assaySystem": "Human papillomavirus type 1a E7 protein (residues 1-88)", "discreteLabel": "fulfilled"}

(Q) Given C[C@]12C(=O)N(CCCO)[C@@H]3C(=O)N(c4ccc(Cl)cc4)CC=CC31O[C@@H]1/C=C\CCCOC(=O)C12 (some centres undefined) , state whether its composite z-score is at least 0.1.
(A) not fulfilled

(Q) API: above_or_equal(metric=composite z-score, cutoff=0.1) for item C[N+](C)(C)CCCC[C@@H]1NC(=O)[C@@H]2C[C@H](C(=O)NCCCCCNC(=O)CS)[C@H](c3cccc(OCCO)c3)N2C1=O
(A) fulfilled

(Q) Hi, just wondering whether COC(=O)[C@@]1(Cc2ccccc2)[C@H]2c3cc(C(=O)N(C)C)n(Cc4ccccn4)c3C[C@H]2CN1C(=O)c1ccccc1 shows composite z-score of 0.1 or higher.
(A) fulfilled

(Q) Is the recorded value of composite z-score equal to or greater than 0.1 for this compound? COC(=O)[C@]1(Cc2ccccc2CN=[N+]=[N-])N=C(c2ccc(OCCCO)cc2)O[C@@H]1c1ccccc1
(A) not fulfilled

* * *

test system: Chordin-like protein 2 (CHRDL2); test: compounds binding chordin-like 2 – biochemical, small-molecule microarray, 635 nm fluorescence, primary screen (AID 1126); conditions: fluorescence 635 nm, higher = more signal;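 also: printed compound slides probed with Chrdl2 protein at 4 µg/mL for 1 h at 4 C; score merges 667 nm emission intensity with signal to noise over three replicate slides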
Class boundaries, taken from values of composite z-score, are as follows: lower segment: < -0.4; middle segment: ≥ -0.4 and < 0.6; upper segment: ≥ 0.6

{"molecule": "CC(=O)NCCCC[C@@H]1NC(=O)[C@H]2C[C@@H](C(=O)NCCCCCN)[C@@H](c3cccc(OCCO)c3)N2C1=O", "discreteLabel": "middle segment"}

(Q) Which category fits this record: CN1C(=O)C2C=CC(C(O)C3CCCCC3)N(N(c3ccccc3)c3ccccc3)C2C1=O (stereo unspecified)
(A) lower segment

(Q) // return the class label for COCCOC(=O)N1C(=O)[C@@]2(c3cc(C#CCCO)ccc31)[C@H](C(=O)NC[C@H](O)c1ccccc1)[C@H]1C(=O)O[C@H](c3ccccc3)[C@H](c3ccccc3)N1[C@@H]2c1ccccc1OCCO
(A) upper segment

(Q) Which class does COCCOC(=O)N1C(=O)[C@@]2(c3cc(C#CCCO)ccc31)[C@H](c1ccc(OCCO)cc1)N1[C@H](c3ccccc3)[C@H](c3ccccc3)OC(=O)[C@H]1[C@@H]2C(=O)N1CCc2cc(OC)c(OC)cc2C1 fall in?
(A) middle segment

(Q) Categorize the following entry: COCCOC(=O)N1C(=O)[C@@]2(c3cc(C#CCC(C(=O)OC)C(=O)OC)ccc31)[C@H](c1ccc(OCCO)cc1)N1[C@H](c3ccccc3)[C@H](c3ccccc3)OC(=O)[C@H]1[C@@H]2C(N)=O
(A) middle segment

(Q) Band for COc1cc2c(cc1OC)CN(C(=O)[C@@H]1[C@H]3C(=O)O[C@H](c4ccccc4)[C@H](c4ccccc4)N3[C@H](c3ccc(OCCO)cc3)[C@@]13C(=O)Nc1ccc(C#CCCO)cc13)CC2 ?
(A) upper segment

(Q) Kindly state the category for this molecule: CCCc1cc2c(n1Cc1ccc(OC)cc1)C(C)C1CN(C(=O)c3ccccc3)C(C)(C(=O)OC)C21 (stereo unspecified)
(A) lower segment

(Q) Exercise: read the entry [N-]=[N+]=NCc1ccccc1C[C@]1(C(=O)NCCN2CCOCC2)COC(c2ccc(OCCCO)cc2)=N1 and state which class it falls under.
(A) lower segment

(Q) Form: Item = CCOC(=O)C1=CC[C@@H](c2ccc(N(CC)CC)cc2)N(S(=O)(=O)c2ccc(C)cc2)[C@H]1c1ccc([N+](=O)[O-])cc1 ; Class = ?
(A) lower segment

(Q) Category lookup for the molecule COC(=O)[C@@]1(Cc2ccc(OC)cc2)[C@H]2c3cc(C(=O)N4CCCC4)n(Cc4ccc(C)o4)c3C[C@H]2CN1C(=O)c1ccccc1
(A) lower segment

(Q) // bin(item) where item = OCc1ccc(-c2cc[n+](Cc3cccc(OC(F)(F)F)c3)cc2)cc1
(A) upper segment
